- Test system: M14 melanoma
- PROTOCOL: NCI-60 one-dose screen, 48 h (100 = growth as untreated, 0 = no growth, -100 = all killed)
- CONDITION DETAILS: 10 µM unless noted
- Experimental: Growth inhibition of the M14 human tumor cell line is measured as a screen for anti-cancer activity. Cells are grown in 96 well plates and exposed to the test compound for 48 hours. Compounds are tested at a single concentration, which is 10^-5 M for most compounds. The reported endpoint is percent growth (GI% or GIPRCNT), where numbers from 0 - 100% represent growth inhibition, and numbers from -100% - 0 represent cell death. For example, a value of 40 represents 60% growth inhibition. […]
This is part of a sample that, as a whole, favours compounds with a hit. Of some 83,000 tested, about 20% had one in any assay.
OUTCOME MEASURE: growth (%)
Give just the numeric value; % need not be written.

Below, each entry is followed by its recorded growth result.
{"MOLECULE": "Cc1ccc(NC(=O)[C@]23CCC(C)(C)CC2C2=CCC4[C@@]5(C)C[C@@H](O)[C@H](O)[C@@](C)(CO)C5CC[C@@]4(C)[C@]2(C)CC3)cc1 (some centres undefined)", "SYSTEM": "M14 melanoma", "UNIT TAG": "%", "VAL": 38.3}
{"MOLECULE": "C#CCOc1ccc(/C=N/Nc2nc(-c3cc4cc(Br)ccc4oc3=O)cs2)cc1OC", "SYSTEM": "M14 melanoma", "UNIT TAG": "%", "VAL": 79.4}

### Prompt Sample O=c1oc2ccccc2cc1-c1csc(N=Nc2c(O)[nH]c3ccc(Cl)cc23)n1 — what was its growth?
### Response 109

### Prompt Sample CCOC(=O)C1=C(N)N(c2ccccc2)C2=C(C(=O)CC(C)(C)C2)C1c1ccccc1Cl (centres undefined) — what was its growth?
### Response 50.8

### Prompt Sample CC1CCCCN1CCCNC(=O)N/C(N)=N/c1nc2ccccc2s1 (centres undefined) — what was its growth?
### Response -85.2

### Prompt Sample N#Cc1c(-c2ccccc2Cl)cc(-c2ccc3ccccc3c2)[nH]c1=O — what was its growth?
### Response 25.1

* * *

- Test system: U251 CNS
- PROTOCOL: NCI-60 one-dose screen, 48 h (100 = growth as untreated, 0 = no growth, -100 = all killed)
- CONDITION DETAILS: 10 µM unless noted
About 83,000 compounds went through this panel and 20% of them were active in at least one assay; those are over-represented in the sample as a whole.
OUTCOME MEASURE: growth (%)
Give just the numeric value; % need not be written.

Below, each entry is followed by its recorded growth result.
{"SMILES REPR": "O=C1NC(=O)/C(=C/c2ccccc2OCc2cc3ccccc3nc2Cl)S1", "growth, %": 58}
{"SMILES REPR": "O=C(O)c1cccc(-c2ccc(/C=N/NC(=O)c3[nH]c4ccc(Br)cc4c3-c3ccccc3)s2)c1", "growth, %": 27}

### Prompt Sample COc1ccc2[nH]c(O)c(N=NC(=O)Cn3c(-c4ccccc4)nc4cc(C)ccc43)c2c1 — what was its growth?
### Response 32.4

### Prompt Sample N#Cc1c(-c2cccc(Cl)c2Cl)cc(-c2c[nH]c3ccccc23)[nH]c1=O — what was its growth?
### Response 68.9

### Prompt Sample N#Cc1ccc(C(=O)Nn2c(N)cc3ccccc3c2=O)cc1 — what was its growth?
### Response 98

* * *

- Tested on: T-47D breast
- PROTOCOL: NCI-60 one-dose screen, 48 h (100 = growth as untreated, 0 = no growth, -100 = all killed)
- CONDITION DETAILS: 10 µM unless noted
About 83,000 compounds went through this panel and 20% of them were active in at least one assay; those are over-represented in the sample as a whole.
Quick reference for growth among some molecules
Give just the numeric value; % need not be written.

Below, each entry is followed by its recorded growth result.
{"MOLECULE": "COc1ccc(-c2ccnc(SCc3cc4ccccc4[nH]c3=O)n2)cc1", "growth / %": 70.2}
{"MOLECULE": "CC1(C)CC[C@]2(C(=O)O)CC[C@]3(C)C(=CCC4[C@@]5(C)C[C@@H](O)[C@@H]6OC(c7ccc(F)cc7)OC[C@@]6(C)C5CC[C@]43C)C2C1 (stereo not given in full)", "growth / %": 33.3}
{"MOLECULE": "CN(C)CCn1c2ccccc2c2nc3cc(C(F)(F)F)ccc3nc21", "growth / %": 59.4}

### Prompt Sample COc1ccc2c(c1)c(-c1cc(N)n3nc(-c4cn(C)c5ccccc45)cc3n1)cn2C — what was its growth?
### Response -57.4

### Prompt Sample Cc1cc2nc3c4ccccc4n(CC4=NCCN4)c3nc2cc1C — what was its growth?
### Response 15.4

* * *

- System: OVCAR-3 ovarian
- PROTOCOL: NCI-60 one-dose screen, 48 h (100 = growth as untreated, 0 = no growth, -100 = all killed)
- CONDITION DETAILS: 10 µM unless noted
About 83,000 compounds went through this panel and 20% of them were active in at least one assay; those are over-represented in the sample as a whole.
OUTCOME MEASURE: growth (%)
Give just the numeric value; % need not be written.

Below, each entry is followed by its recorded growth result.
{"MOLECULE": "O=C(COc1ccc(NC(=O)Nc2ccc(Cl)c(Cl)c2)cc1)N=Nc1c(O)[nH]c2ccccc12", "UNIT TAG": "%", "growth": -78.1}
{"MOLECULE": "O=C(NN1C(=O)/C(=C/C=C/c2ccc([N+](=O)[O-])o2)SC1=S)c1ccc(Cl)cc1", "UNIT TAG": "%", "growth": -98}
{"MOLECULE": "CCOP(=O)(OCCCl)c1nc(-c2ccc(C)cc2)oc1NCc1ccccc1 (centres undefined)", "UNIT TAG": "%", "growth": 75}
{"MOLECULE": "COc1ccc([C@H](C)Nc2nc(Cl)nc3ccccc23)cc1", "UNIT TAG": "%", "growth": 78.7}
{"MOLECULE": "CN(C)c1nc(NCCNS(=O)(=O)c2ccc(C3=Nc4c(N)nc(N)nc4NC(c4ccc(F)cc4)C3)cc2)nc(Nc2ccc(F)cc2)n1 (centres undefined)", "UNIT TAG": "%", "growth": 40.9}
{"MOLECULE": "Cc1ccc(-c2nc(C#N)c(S(=O)(=O)N3CCN(S(=O)(=O)c4ccc(Cl)cc4)CC3)o2)cc1", "UNIT TAG": "%", "growth": 114}
{"MOLECULE": "COc1cc(OC)cc(-c2cc3ccc(N(C)C)cc3c(=O)[nH]2)c1", "UNIT TAG": "%", "growth": 4}
{"MOLECULE": "COc1ccc(C(=O)/C=C/c2ccc(OC)c(OCc3ccccc3)c2)cc1OC", "UNIT TAG": "%", "growth": 16.3}
{"MOLECULE": "Cc1cc(=O)oc2cc(OCCOc3ccc(/C=C/C(=O)Nc4ccccc4N)cc3)ccc12", "UNIT TAG": "%", "growth": 20.3}
{"MOLECULE": "O=C(/C=C/c1ccc(-c2ccccc2)cc1)c1nc2ccccc2n1Cc1ccc(Br)cc1", "UNIT TAG": "%", "growth": 45}

### Prompt Lab note: need growth with OVCAR-3 ovarian for entry CCCS(=O)(=O)N1CCCC(C(=O)Nc2nc3ccc(NC(=O)c4ccc(F)c(OC)c4F)cc3s2)C1 (centres undefined) , please look it up.
### Response 48.9

### Prompt Lab note: need growth with OVCAR-3 ovarian for entry CN(C)CCCNC(=O)c1cc(NC(=O)c2cc(NC(=O)c3ccc(/C=C/c4ccccc4)cc3)cn2C)cn1C , please look it up.
### Response 51.6

### Prompt Lab note: need growth with OVCAR-3 ovarian for entry N=C1N=C(SCc2nc3ccccc3[nH]2)NC(=O)/C1=C/c1ccc(Cl)cc1 , please look it up.
### Response 114

### Prompt Lab note: need growth with OVCAR-3 ovarian for entry S=C(NCCc1ccccc1)Nc1ccc(OCc2nc3ccccc3[nH]2)cc1 , please look it up.
### Response 112

### Prompt Lab note: need growth with OVCAR-3 ovarian for entry Cc1ccc(NC(=O)CN2CCN(c3ncnc4c3cnn4-c3ccccc3)CC2)cc1 , please look it up.
### Response 103

### Prompt Lab note: need growth with OVCAR-3 ovarian for entry Nc1cccc(SCc2cc3ccccc3[nH]c2=O)c1 , please look it up.
### Response 65.2

### Prompt Lab note: need growth with OVCAR-3 ovarian for entry CN(C)CCn1c2ccccc2c2nc3cc(C(F)(F)F)ccc3nc21 , please look it up.
### Response 69.2

### Prompt Lab note: need growth with OVCAR-3 ovarian for entry CC(=O)Nc1cccc(-c2nc3cc(-c4ccc(O)cc4)ccc3n2C)c1 , please look it up.
### Response 31.3

### Prompt Lab note: need growth with OVCAR-3 ovarian for entry Cc1ccc(NC(=O)[C@]23CCC(C)(C)CC2C2=CCC4[C@@]5(C)C[C@@H](O)[C@H](O)[C@@](C)(CO)C5CC[C@@]4(C)[C@]2(C)CC3)cc1 (some centres undefined) , please look it up.
### Response 41.2
